The origin of these recorded values is the CATMoS acute toxicity set (Mansouri et al. 2021).

test.summary: GHS categories as the set defines them, by LD50: 1 up to 5, 2 up to 50, 3 up to 300, 4 up to 2000, 5 above 2000 mg/kg
experimental.context: rat; in vivo; po
readout.name: GHS category
Form: value (number only, do not type unit).

Solved cases below.
- CC(C)(c1ccccc1)c1ccc(Nc2ccc(C(C)(C)c3ccccc3)cc2)cc1: 5
- O=C1C=C2C=C[C@@H]3C[C@@]2(O1)[C@H]1CCCCN31: 4
- CCCCCCCCCCC=O: 5

## Task So what's the measured GHS category for this one? CC(=O)OC1C(N2CCCC2)CC2C3CCC4CC(O)C(N5CCOCC5)CC4(C)C3CCC21C (configuration not stated)
## Result 5

## Task So what's the measured GHS category for this one? CC(=O)SC[C@@H](C)C(=O)N1CCC[C@H]1C(=O)N[C@@H](Cc1ccccc1)C(=O)O
## Result 5

## Task So what's the measured GHS category for this one? CC(C)[C@@H]1CC[C@@H](C)C[C@H]1OC(=O)Cc1ccccc1
## Result 5

## Task So what's the measured GHS category for this one? O=C1CC(=O)NC(=O)N1
## Result 5

## Task So what's the measured GHS category for this one? CCc1ccc(CC)cc1
## Result 5

## Task So what's the measured GHS category for this one? O=C1CC(c2ccccc2)c2cc(Br)ccc2O1 (configuration not stated)
## Result 5

## Task So what's the measured GHS category for this one? CC1(C)O[C@@H]2C[C@H]3[C@@H]4C[C@H](F)C5=CC(=O)C=C[C@]5(C)[C@H]4[C@@H](O)C[C@]3(C)[C@]2(C(=O)CO)O1
## Result 1

## Task So what's the measured GHS category for this one? CCCCCCCC/C=C\CCCCCCCC(=O)O
## Result 5

## Task So what's the measured GHS category for this one? CCCCC(CC)COC(=O)c1ccc(C(=O)OCC(CC)CCCC)c(C(=O)OCC(CC)CCCC)c1 (configuration not stated)
## Result 5

---

Recorded GHS category values for a group of compounds are listed next.
test.summary: GHS categories as the set defines them, by LD50: 1 up to 5, 2 up to 50, 3 up to 300, 4 up to 2000, 5 above 2000 mg/kg
experimental.context: rat; in vivo; po
Form: value (number only, do not type unit).

Solved cases below.
- CCCCCOC(=O)CCCC: 5
- CC(C)c1cc(C(C)C)c(N=C=O)c(C(C)C)c1N=C=O: 5
- CN1C(C(=O)Nc2ccccn2)=C(OP2(=O)OCCCO2)c2sc(Cl)cc2S1(=O)=O: 2

## Task So what's the measured GHS category for this one? CC1CNCCN1SC=S (stereo unspecified)
## Result 5

## Task So what's the measured GHS category for this one? COc1cc(OC)nc(NC(=O)NS(=O)(=O)c2ncccc2C(F)(F)F)n1
## Result 5

## Task So what's the measured GHS category for this one? CCCS(=O)(=O)Nc1ccc(F)c(C(=O)O)c1F
## Result 5

---

Recorded GHS category values for a group of compounds are listed next.
test.summary: GHS categories as the set defines them, by LD50: 1 up to 5, 2 up to 50, 3 up to 300, 4 up to 2000, 5 above 2000 mg/kg
experimental.context: rat; in vivo; po
Form: value (number only, do not type unit).

Solved cases below.
• CC(C)CC(C)(C)C = 5
• C[C@H]1COc2c(N3C[C@@H](N)C4(CCC4)C3)c(F)cc3c(=O)c(C(=O)O)cn1c23 = 5
• CC(C)=CCC/C(C)=C/COCC=O = 5
• O=S(=O)(O)CCO = 5
• Cn1ccnc1Cc1nn[nH]n1 = 5

## Task So what's the measured GHS category for this one? COc1ccc2c(c1)CCN(c1ccccc1)C2c1ccccc1[N+](=O)[O-] (centres undefined)
## Result 4

## Task So what's the measured GHS category for this one? C=C(C)C(=O)OCCCCCCCCCCCC
## Result 5

## Task So what's the measured GHS category for this one? CC(=O)OC1CN(C)C(=O)N1c1cc(C(C)(C)C)no1 (centres undefined)
## Result 4
